// each record: one item and its IC50 for MetRS (T. brucei) (Trypanosoma brucei brucei, UniProt Q38C91)

Recorded IC50, per entry:
- compound: "CCOc1ccc(-c2cccc3nc(Cc4nc5nc(Cl)ccc5[nH]4)cn23)c(Cl)c1"
  IC50: "143 nM"
- compound: "COc1ccc(-c2cccc3nc(Cc4nc5nc(F)ccc5[nH]4)cn23)c(Cl)c1"
  IC50: "< 40 nM"

# batch size: 4; output IC50 per entry
1. CCn1c(Cc2ccc(Cl)cc2Cl)cn(Cc2nc3ccccc3[nH]2)c1=O
2. CCn1c(C(O)c2ccc(Cl)cc2Cl)cn(Cc2nc3nc(Cl)ccc3[nH]2)c1=O (centres unmarked)
3. COc1cc(Cl)c(-c2cccc3nc(Cc4nc5nc(F)ccc5[nH]4)cn23)cc1Cl
4. O=C(O)Cn1c(C(=O)c2ccc(Cl)cc2Cl)cn(Cc2nc3ccc(Cl)nc3[nH]2)c1=O

RESULT:
1: < 40 nM; 2: 53 nM; 3: < 40 nM; 4: < 40 nM

Please look at the items below and tell me IC50 for each one, in order.
1. O=c1n(Cc2nc3ccc(F)nc3[nH]2)cc(Cc2ccc(Cl)cc2Cl)n1CC1CCOCC1
2. Fc1ccc2nc(Cn3cc(Cc4ccc(Cl)cc4Cl)[nH]c3=S)[nH]c2n1

RESULT:
1: < 40 nM; 2: < 40 nM

====

I'd appreciate it if you could supply log10 MIC values for the items below.
# Test system: E. faecium VRE (ATCC 51559)
# procedure.summary: MIC susceptibility testing
# Type: cell-based, Enterococcus faecium
# condition.details: Enterococcus faecium; read-out: E. faecium VRE (ATCC 51559) MIC
Heads up: the numbers are on a log10 scale; they represent MIC in µg/mL.

- compound: "CC(=O)NC[C@H]1CN(c2ccc(N3CCOCC3)c(F)c2)C(=O)O1"
  property: "log10 MIC"
  numeric.result: 0.10

Below is a list of compounds. For each, state its recorded log10 MIC.
1. O=c1[nH]c(Cc2ccc(Cl)cc2Cl)cn1Cc1nc2ccc(F)nc2[nH]1 [Compound 1962, reference compound]
2. O=C(O)c1cn(C2CC2)c2cc(N3CCNCC3)c(F)cc2c1=O
3. CCn1c(Cc2ccc(OC)cc2Cl)cn(Cc2nc3nc(Cl)ccc3[nH]2)c1=O
4. Oc1cc(NCCCNCc2cc(Cl)cc(Cl)c2)nc2ccccc12

RESULT:
0.10
0.70
-1.11
-0.81

Provide reported log10 MIC for each item, in the same order as listed.
1. CCn1c(Cc2ccc(Cl)cc2Cl)cn(Cc2nc3nc(F)ccc3[nH]2)c1=O
2. Clc1cc(Cl)cc(CNCCCNc2nc3ncccc3[nH]2)c1
3. COc1cc(Cl)c(-c2cccc3nc(Cc4nc5nc(Cl)ccc5[nH]4)cn23)cc1OC

RESULT:
1: -0.50; 2: -0.20; 3: -1.71

====

# procedure.summary: Murine pharmacokinetics studies (oral, dried blood spots)
# Format: in vivo, mice
# condition.details: mouse, whole blood (dried blood spots); 50 mg/kg single oral dose; read-out: Mouse Oral PK DBS: Average AUC(0-24 h) (converted)
property: AUC(0-t)
Field: value (include unit after the number)

Some solved cases for reference:
- molecule: "CCn1c(Cc2ccc(OC)cc2Cl)cn(Cc2nc3nc(Cl)ccc3[nH]2)c1=O"
  AUC(0-t): "20400 ng·h/mL"
- molecule: "Fc1ccc2nc(NCCCN[C@@H]3CCNc4c(Cl)cc(Cl)cc43)[nH]c2n1 [Compound 1717, reference compound]"
  AUC(0-t): "15700 ng·h/mL"
- molecule: "COc1cc(Cl)c(-c2cccc3nc(Cc4nc5nc(Cl)ccc5[nH]4)cn23)cc1OC"
  AUC(0-t): "63200 ng·h/mL"

Here are 2 molecules. What values of AUC(0-t) were reported for them?
1. CCn1c(Cc2ccc(OC)cc2Cl)cn(Cc2nc3nc(F)ccc3[nH]2)c1=O
2. CC(=O)NC[C@H]1CN(c2ccc(N3CCOCC3)c(F)c2)C(=O)O1

RESULT:
["15000 ng·h/mL", "94400 ng·h/mL"]

====

# Test system: S. epidermidis (ATCC 49134)
# procedure.summary: MIC susceptibility testing
# Format: cell-based
# condition.details: Staphylococcus epidermidis, ATCC49134; read-out: S. epidermidis (ATCC 49134) MIC
property: MIC (µg/mL)
One number for each entry, in µg/mL.

Illustrative cases are given below, each with its answer.
- compound: "CCn1c(Cc2ccc(Cl)cc2Cl)cn(Cc2nc3nc(F)ccc3[nH]2)c1=O"
  MIC [µg/mL]: 1.25
- compound: "Fc1ccc2nc(NCCCNCc3cc(Cl)cc(Cl)c3)[nH]c2n1"
  MIC [µg/mL]: 10
- compound: "Fc1ccc2nc(NCCCN[C@@H]3CCNc4c(Cl)cc(Cl)cc43)[nH]c2n1 [Compound 1717, reference compound]"
  MIC [µg/mL]: 0.313
- compound: "CC(=O)NC[C@H]1CN(c2ccc(N3CCOCC3)c(F)c2)C(=O)O1"
  MIC [µg/mL]: 0.625
- compound: "CCn1c(Cc2ccc(OC)cc2Cl)cn(Cc2nc3nc(F)ccc3[nH]2)c1=O"
  MIC [µg/mL]: 1.25
- compound: "COc1cc(Cl)c(-c2cccc3nc(Cc4nc5nc(Cl)ccc5[nH]4)cn23)cc1OC"
  MIC [µg/mL]: 0.313

Moving on to another compound below.
QUERY: Look up MIC for this compound: CCn1c(Cc2ccc(OC)cc2Cl)cn(Cc2nc3nc(Cl)ccc3[nH]2)c1=O
RESULT: 1.25

====

Please consider the recorded IC50 for MetRS (T. brucei) (Trypanosoma brucei brucei) in what follows.

Reference set, count: 3
- molecule: "O=c1n(Cc2nc3nc(F)ccc3[nH]2)cc(Cc2ccc(Cl)cc2Cl)n1CCO"
  tested.on: "MetRS (T. brucei) (Trypanosoma brucei brucei)"
  IC50: "< 40 nM"
- molecule: "O=c1[nH]c(C(O)c2ccc(Cl)cc2Cl)cn1Cc1nc2nc(Cl)ccc2[nH]1 (centres unmarked)"
  tested.on: "MetRS (T. brucei) (Trypanosoma brucei brucei)"
  IC50: "55 nM"
- molecule: "O=C(O)Cn1c(C(O)c2ccc(Cl)cc2Cl)cn(Cc2nc3ccc(Cl)nc3[nH]2)c1=O (centres unmarked)"
  tested.on: "MetRS (T. brucei) (Trypanosoma brucei brucei)"
  IC50: "< 40 nM"

Provide IC50 for all items below, preserving their order.
1. CCn1c(Cc2ccc(OC)cc2Cl)cn(Cc2nc3nc(F)ccc3[nH]2)c1=O
2. FC(F)(F)c1ccc(-c2cccc3nc(Cc4nc5nc(Cl)ccc5[nH]4)cn23)c(Cl)c1
3. COc1ccc(-c2ccc(NC(C)=O)c3nc(Cc4nc5cc(Cl)ccc5[nH]4)cn23)c(Cl)c1
4. Clc1ccc(-c2cccc3nc(Cc4nc5nc(Cl)ccc5[nH]4)cn23)c(Cl)c1
5. NCCn1c(Cc2ccc(Cl)cc2Cl)cn(Cc2nc3ccc(Cl)nc3[nH]2)c1=O

RESULT:
< 40 nM
40 nM
< 40 nM
< 40 nM
< 40 nM

Batch request: IC50 for each of the following molecules.
1. COc1ccc(-c2cccc3nc(Cc4nc5nc(Cl)ccc5[nH]4)cn23)c(Cl)c1
2. Fc1ccc2[nH]c(Cc3cn4c(-c5ccc(Cl)cc5Cl)cccc4n3)nc2n1
3. COc1cc(-c2cccc3nc(Cc4nc5nc(F)ccc5[nH]4)cn23)c(Cl)cc1Cl

RESULT:
1: < 40 nM; 2: < 40 nM; 3: < 40 nM

List the reported IC50 of each molecule below.
1. COc1ccc(Cc2cn(Cc3nc4nc(Cl)ccc4[nH]3)c(=O)n2CC(C)(C)N)c(Cl)c1
2. COc1ccc(-c2cccn3c(SC)c(Cc4nc5nc(Cl)ccc5[nH]4)nc23)c(Cl)c1
3. CC(C)(N)Cn1c(Cc2ccc(Cl)cc2Cl)cn(Cc2nc3nc(Cl)ccc3[nH]2)c1=O
4. COc1cc(Cl)c(-c2cccc3nc(Cc4nc5nc(Cl)ccc5[nH]4)cn23)cc1Cl
5. CSc1nc(Cc2ccc(Cl)cc2Cl)cn1Cc1nc2nc(Cl)ccc2[nH]1

RESULT:
["< 40 nM", "< 40 nM", "< 40 nM", "< 40 nM", "< 40 nM"]

====

Could you please report measured pIC50 for the items listed next?
# tested.on: MetRS (C. parvum) (Cryptosporidium parvum, UniProt Q5CVN0)
# Sequence (Q5CVN0 entry or part of it): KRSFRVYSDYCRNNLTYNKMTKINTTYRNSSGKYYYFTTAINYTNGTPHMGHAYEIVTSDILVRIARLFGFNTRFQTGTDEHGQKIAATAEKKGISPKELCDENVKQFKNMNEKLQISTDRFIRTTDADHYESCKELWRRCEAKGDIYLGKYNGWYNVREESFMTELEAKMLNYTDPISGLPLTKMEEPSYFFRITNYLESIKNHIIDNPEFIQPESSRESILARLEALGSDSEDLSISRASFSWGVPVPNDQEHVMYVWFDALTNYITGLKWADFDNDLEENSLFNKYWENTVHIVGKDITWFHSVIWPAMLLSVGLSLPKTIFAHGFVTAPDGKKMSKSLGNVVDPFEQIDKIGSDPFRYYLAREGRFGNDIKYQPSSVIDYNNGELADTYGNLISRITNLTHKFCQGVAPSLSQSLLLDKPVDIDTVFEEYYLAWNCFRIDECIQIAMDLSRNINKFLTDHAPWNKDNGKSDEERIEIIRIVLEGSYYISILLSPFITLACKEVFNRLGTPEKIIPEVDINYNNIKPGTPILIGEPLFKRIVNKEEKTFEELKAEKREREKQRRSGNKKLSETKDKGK
# procedure.summary: MetRS (C. parvum) enzyme inhibition
# Assay type: biochemical
# condition.details: read-out: (C) MetRS (C. parvum) IC50
One number for each entry, as −log10 of the molar value.

- molecule: "CS(=O)(=O)c1nc(Cc2ccc(Cl)cc2Cl)cn1Cc1nc2nc(Cl)ccc2[nH]1"
  pIC50: 6.84
- molecule: "O=c1n(Cc2nc3nc(F)ccc3[nH]2)cc(Cc2ccc(Cl)cc2Cl)n1CCO"
  pIC50: 7.39

Report pIC50 for each item below.
1. CCn1c(Cc2ccc(Cl)cc2Cl)cn(C(C)c2nc3ccc(Cl)nc3[nH]2)c1=O (stereo not shown)
2. COc1ccc(-c2cccc3nc(Cc4nc5nc(Cl)ccc5[nH]4)oc23)c(Cl)c1

RESULT:
[7.05, 7.04]
